Reference source: patent US9725442B2

# measured_target: CRTH2 (Homo sapiens (Human))
# Sequence (Q9Y5Y4 whole entry): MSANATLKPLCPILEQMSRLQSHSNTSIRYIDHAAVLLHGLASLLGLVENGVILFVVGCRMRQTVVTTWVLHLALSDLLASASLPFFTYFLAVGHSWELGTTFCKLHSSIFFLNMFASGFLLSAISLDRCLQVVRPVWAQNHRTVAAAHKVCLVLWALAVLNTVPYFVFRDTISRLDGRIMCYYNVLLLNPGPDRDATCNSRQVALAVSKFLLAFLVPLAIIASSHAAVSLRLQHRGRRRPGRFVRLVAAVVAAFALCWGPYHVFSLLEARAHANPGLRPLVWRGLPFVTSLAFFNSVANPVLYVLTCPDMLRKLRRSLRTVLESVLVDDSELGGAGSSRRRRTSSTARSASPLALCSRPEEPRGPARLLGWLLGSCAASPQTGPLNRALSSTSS
# assay_name: CRTH2 inhibitory activity in CRTH2-expressing cells (PGD2-induced intracellular calcium increase, K562)
# Format: cell-based
# study_conditions: 200 nM PGD2, read-out: IC50, inhibition of intracellular calcium concentration increase induced by PGD2
As shown below, each of these compounds has a reported pIC50 value.
The scale used: pIC50 is minus the common logarithm of the concentration in molar units.

Consider the worked cases shown below.
CC(C)Oc1ccc(S(=O)(=O)N2C[C@H](n3nc(CC(=O)O)c4ccc(F)cc43)C[C@H]2C#N)cc1 [Compound I-7]: 7.48
CC(C)Oc1ccc(S(=O)(=O)N2C[C@@H](C)[C@@H](n3nc(CC(=O)O)c4ccc(F)cc43)C2)cc1 [Compound I-37]: 7.30
CC(C)Oc1ccc(S(=O)(=O)N2C[C@@H](C)[C@@H](n3nc(CC(=O)O)c4ccc(F)cc43)C2)cn1 [Compound I-57]: 6.68
CC(C)Oc1ccc(S(=O)(=O)N2C[C@@H](C)[C@@H](n3nc(CC(=O)O)c4ccc(F)cc43)C2)cn1 [Compound I-123]: 7.04
CC(C)Oc1ccc(S(=O)(=O)N2C[C@@H](C)[C@@H](n3nc(CC(=O)O)c4ccc(C(F)(F)F)cc43)C2)cn1 [Compound I-131]: 6.68

IN: So what does the record say about pIC50 for CC(C)Oc1ccc(S(=O)(=O)N2C[C@H](n3nc(CC(=O)O)c4ccc(F)cc43)[C@@](C)(F)C2)cc1 (racemic) [Compound I-85] ?
OUT: 6.85

IN: Query (compound): CC(C)Oc1ccc(S(=O)(=O)N2C[C@@H](C)[C@@H](n3nc(CC(=O)O)c4ccc(F)cc43)C2)c(F)c1 [Compound I-52] ; field requested: pIC50
OUT: 6.85

IN: Entry CCOc1ccc(S(=O)(=O)N2C[C@@H](C)[C@@H](n3nc(CC(=O)O)c4ccccc43)C2)cn1 [Compound I-96] : reported pIC50 = ?
OUT: 6.64

IN: Requested read-out: pIC50. Entry: C[C@@H]1CN(S(=O)(=O)c2ccc(Cl)cc2)C[C@@H]1n1nc(CC(=O)O)c2ccc(F)cc21 [Compound I-49]
OUT: 7.07

IN: Quick one: pIC50 of CC(C)Oc1ccc(S(=O)(=O)N2C[C@@H](C)[C@@H](n3nc(CC(=O)O)c4ccc(C(F)(F)F)cc43)C2)cc1 [Compound I-130] ?
OUT: 7.14

IN: Bench note: what pIC50 did CCOc1ccc(S(=O)(=O)N2C[C@@H](C)[C@@H](n3nc(CC(=O)O)c4ccccc43)C2)cc1 [Compound I-97] show?
OUT: 7.04
